Listed next: entries and their corresponding binding signal.
targetDesc: RELA (p65) subunit of heterodimer;p52 subunit (Homo sapiens;Homo sapiens, UniProt Q04206;Q00653 1-307;4-332)
Sequence (Q04206 1-307, chain 1 of 2): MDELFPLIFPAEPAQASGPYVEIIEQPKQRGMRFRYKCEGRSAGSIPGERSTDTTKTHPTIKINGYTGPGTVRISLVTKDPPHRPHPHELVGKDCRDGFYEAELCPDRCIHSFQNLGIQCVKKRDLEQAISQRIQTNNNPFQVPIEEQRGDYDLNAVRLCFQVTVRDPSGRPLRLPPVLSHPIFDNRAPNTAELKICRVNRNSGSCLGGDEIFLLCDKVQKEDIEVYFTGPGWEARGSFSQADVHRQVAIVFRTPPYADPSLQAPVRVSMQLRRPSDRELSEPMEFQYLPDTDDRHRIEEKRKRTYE
Sequence (Q00653 4-332, chain 2 of 2): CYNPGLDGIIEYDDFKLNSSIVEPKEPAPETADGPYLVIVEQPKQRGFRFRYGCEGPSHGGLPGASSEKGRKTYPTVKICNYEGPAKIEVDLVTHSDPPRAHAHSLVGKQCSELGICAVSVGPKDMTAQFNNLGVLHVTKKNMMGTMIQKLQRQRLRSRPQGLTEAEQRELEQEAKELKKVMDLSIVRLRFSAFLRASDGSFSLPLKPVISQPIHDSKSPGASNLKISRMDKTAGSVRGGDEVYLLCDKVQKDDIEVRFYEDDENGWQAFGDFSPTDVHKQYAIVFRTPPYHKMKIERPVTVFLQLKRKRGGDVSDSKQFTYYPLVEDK
procedureSummary: protein binding microarray; high values mean tight binding
statedConditions: dsDNA, one strand shown
Hi, when you answer, please include the unit after the number. Thanks!

Answered examples (10):
Entry GAGGTTCTCCC — recorded binding signal = -0.121 z-score

Form field binding signal, entry AGGAGCCCCCT : 0.992 z-score

GAAGATGCCCC has a reported binding signal of 0.186 z-score

Per the record, GAGAAAACCCT has binding signal of 0.499 z-score

Documented binding signal of GAGGGTGTCCC : 0.191 z-score

Per the records, this sequence ( AGGTTCGCCCT ) has binding signal equal to -0.838 z-score

Noted for AAATAACCCCC : its binding signal reads 1.48 z-score

# binding signal of CAGGGCTCCCT = -0.717 z-score

Looking up CGATGTCTCCT , I see its binding signal listed as -0.849 z-score

Recorded result, CAATGTGTCCT , binding signal: -0.828 z-score

Next:
Recorded binding signal (sequence CAGGGTCCCCC ): 0.881 z-score

Value of binding signal reported for the sequence CAAGGGGTCCT is -0.546 z-score

# binding signal of AAAAAGCTCCT = -1.04 z-score

Lab note: measured binding signal of AAGGTATTCCT was -0.138 z-score
